system: ACHN renal; assay: NCI tumour cell line growth inhibition, 48 h
Where a SMILES comes first, the peptide text is derived from it. The star is where a group is joined. Boc = CC(C)(C)OC(=O)*
endpoint_name: TGI

INSERT INTO assay_data (compound, meas_value) VALUES
  ('CC1(C)C2CC1C(/C=N\OCC(=O)O)=CC2=O (stereo not drawn)', '> 100 µM'),
  ('COc1c(O)cc2oc3cc(O)c(CC=C(C)C)c(O)c3c(=O)c2c1C/C=C(\C)CCC=C(C)C', '9.4 µM'),
  ('COC(=O)C(Cc1c[nH]c2ccccc12)NC(=O)C(Cc1c[nH]c2ccccc12)NC(=O)C(Cc1c[nH]c2ccccc12)NC(=O)C(Cc1c[nH]c2ccccc12)NC(=O)C(Cc1c[nH]c2ccccc12)NC(=O)OC(C)(C)C (stereo not drawn) (Boc-WWWWW-OMe; configuration not given here)', '> 100 µM'),
  ('CC(SC(=S)N1CCCC1)C(=O)Nc1nnc(-c2ccc(Cl)cc2)o1 (stereo not drawn)', '> 100 µM'),
  ('COC(=O)C(=O)C(C(=O)C(=O)Nc1ccc([N+](=O)[O-])cc1[N+](=O)[O-])c1nc2ccc([N+](=O)[O-])cc2[nH]c1=O (stereo not drawn)', '> 100 µM'),
  ('COc1nc(N)nc2c1n(C)c[n+]2C', '> 100 µM'),
  ('OCc1ccc(N(Cc2ccc(F)cc2)C2CCC2)cc1Cl', '26.4 µM'),
  ('O=C1C(Cl)=C(Oc2ccccc2)C(=O)c2ccccc21', '3.14 µM'),
  ('CC(C)(C)[Si](C)(C)OC1[C@@H](O[Si](C)(C)C(C)(C)C)[C@@H](CNC(=O)NC(=O)NC(=O)CI)O[C@H]1n1cnc2c(NC(=O)Nc3ccccc3)ncnc21 (stereo partly drawn)', '9.75 µM'),
  ('COc1ccc2c(CN3CCC(CO)CC3)cc3cc4c(cc3c2c1)OCO4', '0.45 µM'),
  ('c1ccc2c(c1)Sc1ccccc1N2CCCN1c2ccccc2Sc2ccccc21', '> 100 µM'),
  ('Cc1cc(N(CCC#N)CCC#N)ccc1N=Nc1ccccc1[N+](=O)[O-]', '> 100 µM'),
  ('CC1(c2ccccc2)CC12C(=O)NC(=O)NC2=O (stereo not drawn)', '> 100 µM'),
  ('CCC12CCC(O)C1N(C)CCC2Sc1ccccc1 (stereo not drawn)', '> 100 µM'),
  ('CC(C)C(=O)CC(Sc1ccc(N)cc1)c1ccccc1 (stereo not drawn)', '58.3 µM'),
  ('NC(=O)c1csc(C2O[C@@H](COP(=O)(O)OP(=O)(O)OC[C@H]3OC(n4cnc5c(N)ncnc54)[C@H](O)[C@@H]3O)[C@H](O)[C@@H]2O)n1 (stereo partly drawn)', '> 100 µM'),
  ('CCOC(=O)/C(=C\NC[C@@H](C)O)c1nc2ccccc2[nH]1', '90.4 µM'),
  ('COc1ccccc1-c1n[nH]c(-c2ccccc2O)n1', '> 100 µM'),
  ('O=C(CCl)Nc1ccccc1SCc1cc(Cl)cc2c1OCOC2', '23.8 µM'),
  ('N#CCN(Cc1ccccc1)[C@H]1CCC[C@]1(O)/C=C/c1ccc2c(c1)OCO2', '> 100 µM'),
  ('CCCCn1c(C)c(C)c2c1NN=C(C#N)S2(=O)=O', '> 100 µM'),
  ('COc1cccc(-c2nc(-c3ccc(NS(=O)(=O)c4ccccc4)cc3)[nH]c2-c2ccnc(Br)c2)c1', '> 100 µM'),
  ('CC1=C2C(=CC(C)(CO)C2O)C(=O)C(C)(O)C12CC2 (stereo not drawn)', '0.0132 µM'),
  ('CCOC(=O)c1[nH]c2cccc3c2c1CC(Br)C3=O (stereo not drawn)', '20.2 µM'),
  ('CN(C)Cc1cc(N=Nc2c(Cl)cccc2Cl)ccc1O', '> 100 µM'),
  ('CC(C)SC1SCC2C(=O)N(C)C3(CC3C)C(=O)OCC(NC(=O)c3nc4ccccc4cc3O)C(=O)NC(C)C(=O)N(C)C1C(=O)N(C)C1(CC1C)C(=O)OCC(NC(=O)c1nc3ccccc3cc1O)C(=O)NC(C)C(=O)N2C (stereo not drawn)', '> 100 µM'),
  ('Clc1ccc(N2COOC3(OOC2)C2CC4CC(C2)CC3C4)cc1', '6.03 µM'),
  ('N#Cc1cccc(Nc2ccccc2SSc2ccccc2Nc2cccc(C#N)c2)c1', '> 21.5 µM'),
  ('COc1c2c(c(OC)c3c(=O)cc(C/C(=N/NC(=O)C[n+]4ccccc4)C(=O)Nc4cc(C)ccc4C)oc13)OCO2', '> 100 µM'),
  ('Cc1cc(Cl)ccc1NC(=O)/C(Cc1nc2ccc(C(=O)c3ccccc3)cc2[nH]c1=O)=N/NC(=O)c1ccncc1', '> 100 µM'),
  ('c1ccc(Oc2c3ccccc3nc3ccccc23)cc1', '13.7 µM'),
  ('Clc1ccccc1-c1nn2c(CCCCCCCCc3nnc4sc(-c5ccccc5Cl)nn34)nnc2s1', '> 100 µM'),
  ('COC(=O)C/C(C)=C/[C@@H](O)[C@H]1O[C@@H]2CC/C(Cl)=C/C/C=C(/C)[C@H](OC(C)=O)CC(=O)O[C@@H]1C2', '4.51 µM'),
  ('CN(OC(=O)CC(=O)c1ccccc1)C(=O)Cc1ccccc1', '> 100 µM'),
  ('O=c1cnn(C/C=C/CP(=O)(O)O)c(=O)[nH]1', '> 100 µM'),
  ('O=NN(CCCl)C(=O)NCc1ccc[n+]([O-])c1', '> 100 µM'),
  ('Cc1nc(C)c(N2CCN(C(=O)NC(CCC(=O)O)C(=O)O)CC2)c(=O)[nH]1 (stereo not drawn)', '> 100 µM'),
  ('COc1ccc(OC)c2sc(N3C(=O)/C(=C/c4ccc(N(C)C)cc4)N=C3c3ccccc3)nc12', '> 100 µM');

----------
Entries and their TGI
tested on: MDA-MB-231 breast; test: NCI tumour cell line growth inhibition, 48 h
endpoint_name: TGI

INSERT INTO assay_data (compound, assay_target, endpoint_name, meas_value) VALUES
  ('COc1ccc(-c2cc(-c3ccccc3)c3c(n2)-c2ccccc2NC(=O)C3)cc1', 'MDA-MB-231 breast', 'TGI', '> 100 µM'),
  ('COc1ccc(-c2nc3sccn3c2/C=C/C(=O)c2cc(OC)c(OC)c(OC)c2)cc1OC', 'MDA-MB-231 breast', 'TGI', '27.7 µM'),
  ('CC(C)(C)c1cc(C(C)(C)C)c(P=C(Cl)Cl)c(C(C)(C)C)c1 (centres undefined)', 'MDA-MB-231 breast', 'TGI', '> 100 µM'),
  ('COc1ccccc1-c1n[nH]c(-c2ccccc2O)n1', 'MDA-MB-231 breast', 'TGI', '> 100 µM'),
  ('O=S(=O)(O)c1ccc(N=Nc2c(O)ccc3ccccc23)cc1', 'MDA-MB-231 breast', 'TGI', '> 100 µM'),
  ('CC1CC/C(=C\c2ccc(Cl)cc2)C(=O)/C1=C\c1ccc(Cl)cc1 (centres undefined)', 'MDA-MB-231 breast', 'TGI', '> 100 µM'),
  ('Cc1cccc2c1CC(C1OC(=O)c3c(C)cccc31)C2=O (centres undefined)', 'MDA-MB-231 breast', 'TGI', '> 100 µM'),
  ('Cc1ccc(/C(O)=C/c2nc3ccccc3nc2NC23CC4CC(CC(C4)C2)C3)cc1', 'MDA-MB-231 breast', 'TGI', '> 10 µM'),
  ('CC(C)SC1SCC2C(=O)N(C)C3(CC3C)C(=O)OCC(NC(=O)c3nc4ccccc4cc3O)C(=O)NC(C)C(=O)N(C)C1C(=O)N(C)C1(CC1C)C(=O)OCC(NC(=O)c1nc3ccccc3cc1O)C(=O)NC(C)C(=O)N2C (centres undefined)', 'MDA-MB-231 breast', 'TGI', '> 100 µM');

----------
test system: CAKI-1 renal; assay: NCI tumour cell line growth inhibition, 48 h
endpoint_name: TGI

INSERT INTO measurements (molecule, meas_value) VALUES
  ('CCOC(=O)c1nc2cc(F)c(F)cc2nc1NCc1cc(OC)c(OC)c(OC)c1', '> 100 µM'),
  ('Cc1ccc(C2=[N+]([O-])c3ccccc3C2=O)cc1', '> 100 µM'),
  ('O=C(c1ccccc1)c1ccc2cccc(O)c2n1', '> 100 µM'),
  ('CC(C)(C)[Si](C)(C)OC1[C@@H](O[Si](C)(C)C(C)(C)C)[C@@H](CNC(=O)NC(=O)NC(=O)CI)O[C@H]1n1cnc2c(NC(=O)Nc3ccccc3)ncnc21 (stereo not given in full)', '0.406 µM'),
  ('CN(C)Cc1cc(N=Nc2c(Cl)cccc2Cl)ccc1O', '> 100 µM'),
  ('CC1CC/C(=C\c2ccc(Cl)cc2)C(=O)/C1=C\c1ccc(Cl)cc1 (stereo not given)', '44.9 µM'),
  ('CC1=NN(c2cccc(Cl)c2)C(=N/c2nc3ccccc3s2)/C1=C\c1ccccc1O', '> 100 µM'),
  ('COc1cccc(/C=C\c2cc(OC)c(OC)c(OC)c2)c1', '56.4 µM'),
  ('O=C(Oc1cccc(Nc2ncnc3ccccc23)c1)c1ccccc1Cl', '35.8 µM'),
  ('CCCCCCC(O)C/C=C/CCCCCC/C(C(=O)OC)=C(/O)C(=O)OCC (stereo not given)', '> 100 µM');
